- testSystem: KRas G12A (Homo sapiens, UniProt P01116, G12A);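 further: binding to KRas measured by TR-FRET displacement after one hour at room temperature, IC50 from a four-parameter fit of percent-of-control values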
- Sequence (P01116 1-169 isoform P01116-2 G12A): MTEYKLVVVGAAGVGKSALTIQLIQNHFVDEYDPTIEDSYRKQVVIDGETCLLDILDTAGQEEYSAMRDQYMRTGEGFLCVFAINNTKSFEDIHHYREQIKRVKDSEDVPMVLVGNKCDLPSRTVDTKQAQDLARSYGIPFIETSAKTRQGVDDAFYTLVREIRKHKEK
- procedureSummary: biochemical
pIC50: −log10 of the molar value.
observable: pIC50

(I) NS(=O)(=O)CC1CCCN(c2nc(OCC34CCCN3CCC4)nc3c(F)c(-c4cccc5cccc(Cl)c45)ncc23)C1 (stereo not drawn)
(II) CN(C)C(=O)c1cc2n(n1)CCCN(c1nc(OCC34CCCN3CCC4)nc3c(F)c(-c4cccc5cccc(F)c45)ncc13)C2
stdin: Endpoint returns whichever of I and II has the numerically higher pIC50. Record your answer as the label of the chosen record.
stdout: I
(I: 7.23, II: 6.53)

* * *

- testSystem: KRas G12V (Homo sapiens, UniProt P01116, G12V);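 further: KRas binding measured by TR-FRET displacement at room temperature, IC50 fitted from percent of control values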
- Sequence (P01116 1-169 isoform P01116-2 G12V): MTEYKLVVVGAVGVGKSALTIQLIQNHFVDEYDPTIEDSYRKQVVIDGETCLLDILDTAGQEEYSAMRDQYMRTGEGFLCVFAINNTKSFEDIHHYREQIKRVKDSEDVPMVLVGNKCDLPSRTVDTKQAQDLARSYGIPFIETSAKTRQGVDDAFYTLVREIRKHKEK
- procedureSummary: biochemical
pIC50: −log10 of the molar value.
observable: pIC50

{"compound": "Fc1c(-c2cccc3cccc(F)c23)ncc2c(NCc3ccc4nonc4c3)nc(OCC34CCCN3CCC4)nc12", "testSystem": "KRas G12V (Homo sapiens, UniProt P01116, G12V)", "pIC50": 5.41}

(a) OC1CC2(CCCN(c3nc(OCC45CCCN4CCC5)nc4c(F)c(-c5cccc6cccc(F)c56)ncc34)C2)C1 (stereo not drawn)
(b) Cc1cc(-c2ncc3c(N4CCCC(C)(O)C4)nc(OCC45CCCN4CCC5)nc3c2F)c2cn[nH]c2c1 (stereo not drawn)
stdin: Thinking about recorded pIC50 values, which is higher, a or b ? Answer by stating the label of the chosen item.
stdout: a
